B1: glmS ribozyme (parent)
chain: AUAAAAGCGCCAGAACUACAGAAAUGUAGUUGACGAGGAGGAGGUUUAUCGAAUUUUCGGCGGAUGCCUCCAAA

variants of: B1; assay: self-cleavage kobs at 160 uM GlcN6P; higher = faster cleavage; RNA array; settings: with glucosamine-6-phosphate
This sample holds only a part of the variants without activity.
measured attribute: self-cleavage kobs at 160 uM GlcN6P

INSERT INTO assay_data (mutation_name, data_value) VALUES
  ('C16G U45A', '0.00048 s⁻¹'),
  ('G38A G41A U45C A52G', '< 1e-05 s⁻¹'),
  ('G9U G41U', '< 1e-05 s⁻¹'),
  ('C8A G35C G62U', '< 1e-05 s⁻¹'),
  ('C8U A36U G40C U56A', '< 1e-05 s⁻¹'),
  ('A15U C16U', '0.000152 s⁻¹'),
  ('U45A C70A', '2.63e-05 s⁻¹'),
  ('G37A G43U', '< 1e-05 s⁻¹'),
  ('U30C', '4.18e-05 s⁻¹'),
  ('G13C C68U', '< 1e-05 s⁻¹'),
  ('G7U G60U', '< 1e-05 s⁻¹'),
  ('G43U U55A', '< 1e-05 s⁻¹'),
  ('G38U G44C U56C U57G C70U', '< 1e-05 s⁻¹'),
  ('G7A G32A G51A G62C C68A', '< 1e-05 s⁻¹'),
  ('A12C C68U', '6.12e-05 s⁻¹'),
  ('U56A C71G', '0.000119 s⁻¹'),
  ('G35U G38A', '< 1e-05 s⁻¹'),
  ('A14G G35U G66U', '< 1e-05 s⁻¹'),
  ('A6U G35U G38C A53U A64G', '< 1e-05 s⁻¹'),
  ('A15C U54C', '0.000481 s⁻¹'),
  ('A14G C58A', '6.76e-05 s⁻¹'),
  ('A48U A64G', '8.32e-05 s⁻¹'),
  ('G37U C70U C71A', '< 1e-05 s⁻¹'),
  ('G32A A48C', '< 1e-05 s⁻¹'),
  ('A12C C16U', '0.001 s⁻¹'),
  ('C10A G32C G38C', '< 1e-05 s⁻¹'),
  ('A14C U56A', '0.000133 s⁻¹'),
  ('G43U U56C', '< 1e-05 s⁻¹'),
  ('A15G U55A G62U G63C', '< 1e-05 s⁻¹'),
  ('A33G G51A', '< 1e-05 s⁻¹'),
  ('G35C C58U', '< 1e-05 s⁻¹'),
  ('A53U A64G', '0.00148 s⁻¹'),
  ('C50G G62A', '0.000128 s⁻¹'),
  ('C10U A12U A33U A53G C58U U69G', '0.000159 s⁻¹'),
  ('G29C G43C C70G', '< 1e-05 s⁻¹'),
  ('G29U U49A', '< 1e-05 s⁻¹'),
  ('G13A A39G C68A', '< 1e-05 s⁻¹'),
  ('C16A A33U A36C A39C G43U', '< 1e-05 s⁻¹'),
  ('G29A U31C C34U', '< 1e-05 s⁻¹'),
  ('G13A C58G G59U', '< 1e-05 s⁻¹'),
  ('A6G G35A', '< 1e-05 s⁻¹'),
  ('U30G C71U', '0.000449 s⁻¹'),
  ('G7C U49A', '< 1e-05 s⁻¹'),
  ('A52G A64G', '6.03e-05 s⁻¹'),
  ('G43A A64G', '< 1e-05 s⁻¹'),
  ('A48U U49A', '< 1e-05 s⁻¹'),
  ('C11G A39U C50G', '< 1e-05 s⁻¹'),
  ('C34G G43C', '< 1e-05 s⁻¹'),
  ('A15U A39C C58A C70G', '< 1e-05 s⁻¹'),
  ('C8G C71A', '< 1e-05 s⁻¹'),
  ('A36U C70A', '4.33e-05 s⁻¹'),
  ('A15G C16G', '0.000213 s⁻¹'),
  ('G59C C71U', '< 1e-05 s⁻¹'),
  ('U47C A53U', '0.000209 s⁻¹'),
  ('A12G A15G', '2.24e-05 s⁻¹'),
  ('G44U C61A', '< 1e-05 s⁻¹'),
  ('A14C U31A', '0.00135 s⁻¹'),
  ('G40U C67G', '< 1e-05 s⁻¹'),
  ('C8A G66U', '< 1e-05 s⁻¹'),
  ('A36C U69G', '0.000114 s⁻¹'),
  ('A12U G13A C50G C67U', '0.000201 s⁻¹'),
  ('C8A A12U C16G G41A C68A', '< 1e-05 s⁻¹'),
  ('U30A G44C', '< 1e-05 s⁻¹'),
  ('U31A U55G', '0.000659 s⁻¹'),
  ('C8U A64C', '< 1e-05 s⁻¹'),
  ('G9U G40A A52U', '< 1e-05 s⁻¹'),
  ('U30C A36G C67A', '< 1e-05 s⁻¹'),
  ('A39C A64C', '< 1e-05 s⁻¹'),
  ('A12U C34U A36U U55G', '< 1e-05 s⁻¹'),
  ('G44C C67U C68U', '< 1e-05 s⁻¹'),
  ('C16G A33C C58G G66A', '< 1e-05 s⁻¹'),
  ('G37A G38U U65C', '< 1e-05 s⁻¹'),
  ('A6G A12G U31A U54A C71A', '< 1e-05 s⁻¹'),
  ('C10G C34G G38A U47A', '< 1e-05 s⁻¹'),
  ('C50G A52G', '3.58e-05 s⁻¹'),
  ('G35A U49A', '< 1e-05 s⁻¹'),
  ('U56G G66A', '0.00049 s⁻¹'),
  ('A36C G66C', '< 1e-05 s⁻¹'),
  ('U30C C70U', '6.03e-05 s⁻¹'),
  ('U45A U49G', '0.000194 s⁻¹');

Value source: the supplement of paper PMC7125110
